Would you mind telling me the reported protein stability index of each entry?
B1: FAM46C (parent)
chain: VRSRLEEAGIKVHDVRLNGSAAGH

Variants of: B1
Assay: protein stability index of a GFP-peptide fusion (GPS, HEK-293T) (PSI 1-6); higher = more stable;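 further: lentivirally expressed fusions sorted by FACS into six bins by GFP to DsRed ratio, PSI derived from sequencing read proportions per bin multiplied by bin number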
Settings: c terminus: a fixed tail appended

## Input Retrieve protein stability index measured for VRSRLEEAGVKVHDVRLNGSAAGH [I10V] and print it.
## Output 4.24

## Input Retrieve protein stability index measured for VRSRLEEAGIKVFDVRLNGSAAGH [H13F] and print it.
## Output 1.74

## Input Retrieve protein stability index measured for VRSRLEEAGIKVHDVRLNGSAAGD [H24D] and print it.
## Output 2.7

## Input Retrieve protein stability index measured for VRGRLEEAGIKVHDVRLNGSAAGH [S3G] and print it.
## Output 2.91

## Input Retrieve protein stability index measured for VRMRLEEAGIKVHDVRLNGSAAGH [S3M] and print it.
## Output 1.53

## Input Retrieve protein stability index measured for VRSRLEEAGIKVHDVRLNGSAAGW [H24W] and print it.
## Output 3.51

## Input Retrieve protein stability index measured for VRSRLEEAGIKVHDVRLNGSAAFH [G23F] and print it.
## Output 2.94

## Input Retrieve protein stability index measured for VRSRLEEAGIKVHDNRLNGSAAGH [V15N] and print it.
## Output 3.62

## Input Retrieve protein stability index measured for ERSRLEEAGIKVHDVRLNGSAAGH [V1E] and print it.
## Output 3.44

## Input Retrieve protein stability index measured for VRSRLEEAGIKWHDVRLNGSAAGH [V12W] and print it.
## Output 2.77

## Input Retrieve protein stability index measured for VRSRLEEAGIKVMDVRLNGSAAGH [H13M] and print it.
## Output 1.53

## Input Retrieve protein stability index measured for VRSRLEEYGIKVHDVRLNGSAAGH [A8Y] and print it.
## Output 1.13

## Input Retrieve protein stability index measured for VRSRLEEARIKVHDVRLNGSAAGH [G9R] and print it.
## Output 3.88

## Input Retrieve protein stability index measured for VRSRNEEAGIKVHDVRLNGSAAGH [L5N] and print it.
## Output 4.03

## Input Retrieve protein stability index measured for VQSRLEEAGIKVHDVRLNGSAAGH [R2Q] and print it.
## Output 2.58

## Input Retrieve protein stability index measured for VRSRLEEAGIKVGDVRLNGSAAGH [H13G] and print it.
## Output 4.18

## Input Retrieve protein stability index measured for VRSRLEEAGIKVHDVRLNGSAACH [G23C] and print it.
## Output 1.64

## Input Retrieve protein stability index measured for VRSRLEEWGIKVHDVRLNGSAAGH [A8W] and print it.
## Output 2.19

## Input Retrieve protein stability index measured for VRSRLEEAGIKVHLVRLNGSAAGH [D14L] and print it.
## Output 2.43

## Input Retrieve protein stability index measured for VRSRLNEAGIKVHDVRLNGSAAGH [E6N] and print it.
## Output 3.54

## Input Retrieve protein stability index measured for VRSRLEIAGIKVHDVRLNGSAAGH [E7I] and print it.
## Output 2.48

## Input Retrieve protein stability index measured for VRSRLEEAGIKNHDVRLNGSAAGH [V12N] and print it.
## Output 4.04

## Input Retrieve protein stability index measured for VRSRLEEAGIKVHDVRLLGSAAGH [N18L] and print it.
## Output 1.16

## Input Retrieve protein stability index measured for VRSRLEEAGIKVHDDRLNGSAAGH [V15D] and print it.
## Output 5.04

## Input Retrieve protein stability index measured for VRSRLEEAGIKVHDVRLNGAAAGH [S20A] and print it.
## Output 2.61

## Input Retrieve protein stability index measured for VRSRTEEAGIKVHDVRLNGSAAGH [L5T] and print it.
## Output 4.59

## Input Retrieve protein stability index measured for VRSRLEEAGPKVHDVRLNGSAAGH [I10P] and print it.
## Output 4.56

## Input Retrieve protein stability index measured for VRSRLEEAGIKVHDVRLNGSARGH [A22R] and print it.
## Output 2.17

## Input Retrieve protein stability index measured for VRSRLEEAGGKVHDVRLNGSAAGH [I10G] and print it.
## Output 4.5

## Input Retrieve protein stability index measured for VRSRLEEAGIKVHDVRLNGPAAGH [S20P] and print it.
## Output 1.95

## Input Retrieve protein stability index measured for VRSREEEAGIKVHDVRLNGSAAGH [L5E] and print it.
## Output 4.38

## Input Retrieve protein stability index measured for VRSRLEEAGIKVHDVWLNGSAAGH [R16W] and print it.
## Output 1.66

## Input Retrieve protein stability index measured for VRSRLEEAGIKVHDVRLNGSWAGH [A21W] and print it.
## Output 1.56

## Input Retrieve protein stability index measured for VRSRLEEAGIKVKDVRLNGSAAGH [H13K] and print it.
## Output 2.02

## Input Retrieve protein stability index measured for FRSRLEEAGIKVHDVRLNGSAAGH [V1F] and print it.
## Output 2.56

## Input Retrieve protein stability index measured for VRSRLEEAGIIVHDVRLNGSAAGH [K11I] and print it.
## Output 1.63

## Input Retrieve protein stability index measured for VWSRLEEAGIKVHDVRLNGSAAGH [R2W] and print it.
## Output 2.28

## Input Retrieve protein stability index measured for VRSRLEEAGIKRHDVRLNGSAAGH [V12R] and print it.
## Output 4.44

## Input Retrieve protein stability index measured for VRSRLEEAGIKVHDVRLQGSAAGH [N18Q] and print it.
## Output 1.96

## Input Retrieve protein stability index measured for VRSRLEEAGIKVHDVDLNGSAAGH [R16D] and print it.
## Output 4.37

## Input Retrieve protein stability index measured for VRSRLEEAGIKVHDVRLNGLAAGH [S20L] and print it.
## Output 2

## Input Retrieve protein stability index measured for VRSRLEFAGIKVHDVRLNGSAAGH [E7F] and print it.
## Output 2.49

## Input Retrieve protein stability index measured for VRSRLWEAGIKVHDVRLNGSAAGH [E6W] and print it.
## Output 1.64

## Input Retrieve protein stability index measured for VRSRLEEAGIKVTDVRLNGSAAGH [H13T] and print it.
## Output 1.86

## Input Retrieve protein stability index measured for VRSRSEEAGIKVHDVRLNGSAAGH [L5S] and print it.
## Output 4.34

## Input Retrieve protein stability index measured for TRSRLEEAGIKVHDVRLNGSAAGH [V1T] and print it.
## Output 4.25

Reference source for all entries: the supplement of paper PMC10567573
